Test: SARA analysis of bitumen samples extracted from oil sands by each solvent
Format: physicochemical
Settings: bitumen extracted at 30 C
Reported Saturates, oil composition of extracted bitumen is given for each of the following compounds.
PROPERTY: Saturates, oil composition of extracted bitumen (Normalized Weight Percent)

COMPOUND: S=C=S [Carbon Disulfide, carbon disulfide]
UNIT ABBREVIATION: Normalized Weight Percent
VALUE OBSERVED: 18.77
--
COMPOUND: ClC(Cl)Cl [Chloroform, chloroform]
UNIT ABBREVIATION: Normalized Weight Percent
VALUE OBSERVED: 15.64
--
COMPOUND: C1CCOC1 [Tetrahydrofuran, tetrahydrofuran]
UNIT ABBREVIATION: Normalized Weight Percent
VALUE OBSERVED: 16.11
--
COMPOUND: CSC [Dimethyl Sulfide, dimethyl sulfide]
UNIT ABBREVIATION: Normalized Weight Percent
VALUE OBSERVED: 15.49
--
COMPOUND: Cc1ccccc1C
UNIT ABBREVIATION: Normalized Weight Percent
VALUE OBSERVED: 17.37
